assay: Hemolytic activity in rat erythrocytes at 1000 ug/ml incubated for 1 hr; assay type: toxicity, cell-based, Erythrocyte; conditions: at 1000 µg/mL, read-out: Activity
Where a SMILES comes first, the peptide text is derived from it.
Each entry below carries its reported hemolysis at 1 h, 1000 ug/ml.
Property Measured: hemolysis at 1 h, 1000 ug/ml

{"columns": ["Molecule", "Property Measured", "Reported"],
 "data": [
  ["CC[C@H](C)[C@H](NC(=O)[C@@H](N)CCCNC(=N)N)C(=O)NCC(=O)N[C@@H](Cc1c[nH]c2ccccc12)C(=O)N[C@@H](CS)C(=O)N[C@@H](C)C(=O)N[C@@H](Cc1c[nH]c2ccccc12)C(=O)N[C@@H](CC(C)C)C(=O)N[C@@H](CC(C)C)C(=O)N[C@@H](CCCCN)C(=O)N[C@@H](CC(N)=O)C(=O)N[C@@H](CCCCN)C(=O)N[C@@H](C)C(N)=O (H-RIGWCAWLLKNKA-NH2)", "hemolysis at 1 h, 1000 ug/ml", "8.18%"],
  ["CC[C@H](C)[C@H](NC(=O)[C@H](Cc1ccccc1)NC(=O)[C@@H](N)Cc1c[nH]c2ccccc12)C(=O)N[C@H](C(=O)N[C@@H](Cc1c[nH]c2ccccc12)C(=O)N[C@@H](Cc1c[nH]cn1)C(=O)N[C@@H](Cc1c[nH]c2ccccc12)C(=O)N[C@@H](CCCNC(=N)N)C(=O)N[C@@H](CCCCN)C(=O)N[C@H](C(=O)N1CCC[C@H]1C(=O)N1CCC[C@H]1C(=O)N[C@@H](CCCCN)C(N)=O)[C@@H](C)CC)[C@@H](C)CC (H-WFIIWHWRKIPPK-NH2)", "hemolysis at 1 h, 1000 ug/ml", "10.8%"],
  ["CC[C@H](C)[C@H](NC(=O)[C@H](Cc1c[nH]c2ccccc12)NC(=O)CNC(=O)[C@H](CCC(N)=O)NC(=O)[C@@H](N)CCCNC(=N)N)C(=O)N[C@@H](Cc1c[nH]c2ccccc12)C(=O)N[C@@H](Cc1ccc(O)cc1)C(=O)NCC(=O)N[C@@H](Cc1ccccc1)C(=O)N[C@@H](Cc1ccccc1)C(=O)N[C@@H](Cc1c[nH]c2ccccc12)C(=O)N[C@@H](CCCCN)C(=O)N[C@@H](CCCCN)C(N)=O (H-RQGWIWYGFFWKK-NH2)", "hemolysis at 1 h, 1000 ug/ml", "7.47%"]
]}

---

test system: Staphylococcus aureus; assay: Antibacterial activity against methicillin resistant Staphylococcus aureus 2 incubated for 18 hrs by visual inspection method; format: functional
Where a SMILES comes first, the peptide text is derived from it.
Property Measured: MIC (µg/mL)

{"columns": ["Compound", "Reported"],
 "data": [
  ["CC[C@H](C)[C@H](NC(=O)[C@H](Cc1c[nH]c2ccccc12)NC(=O)CNC(=O)[C@H](CCC(N)=O)NC(=O)[C@@H](N)CCCNC(=N)N)C(=O)N[C@@H](Cc1c[nH]c2ccccc12)C(=O)N[C@@H](Cc1ccc(O)cc1)C(=O)NCC(=O)N[C@@H](Cc1ccccc1)C(=O)N[C@@H](Cc1ccccc1)C(=O)N[C@@H](Cc1c[nH]c2ccccc12)C(=O)N[C@@H](CCCCN)C(=O)N[C@@H](CCCCN)C(N)=O (H-RQGWIWYGFFWKK-NH2)", 7.5],
  ["CN[C@H](CC(C)C)C(=O)N[C@H]1C(=O)N[C@@H](CC(N)=O)C(=O)N[C@H]2C(=O)N[C@H]3C(=O)N[C@H](C(=O)N[C@H](C(=O)O)c4cc(O)cc(O)c4-c4cc3ccc4O)[C@H](O)c3ccc(c(Cl)c3)Oc3cc2cc(c3O[C@@H]2O[C@H](CO)[C@@H](O)[C@H](O)[C@H]2O[C@H]2C[C@](C)(N)[C@H](O)[C@H](C)O2)Oc2ccc(cc2Cl)[C@H]1O", 0.94],
  ["CC[C@H](C)[C@H](NC(=O)[C@@H](N)CCCNC(=N)N)C(=O)NCC(=O)N[C@@H](Cc1c[nH]c2ccccc12)C(=O)N[C@@H](CS)C(=O)N[C@@H](C)C(=O)N[C@@H](Cc1c[nH]c2ccccc12)C(=O)N[C@@H](CC(C)C)C(=O)N[C@@H](CC(C)C)C(=O)N[C@@H](CCCCN)C(=O)N[C@@H](CC(N)=O)C(=O)N[C@@H](CCCCN)C(=O)N[C@@H](C)C(N)=O (H-RIGWCAWLLKNKA-NH2)", 60],
  ["CC[C@H](C)[C@H](NC(=O)[C@H](Cc1ccccc1)NC(=O)[C@@H](N)Cc1c[nH]c2ccccc12)C(=O)N[C@H](C(=O)N[C@@H](Cc1c[nH]c2ccccc12)C(=O)N[C@@H](Cc1c[nH]cn1)C(=O)N[C@@H](Cc1c[nH]c2ccccc12)C(=O)N[C@@H](CCCNC(=N)N)C(=O)N[C@@H](CCCCN)C(=O)N[C@H](C(=O)N1CCC[C@H]1C(=O)N1CCC[C@H]1C(=O)N[C@@H](CCCCN)C(N)=O)[C@@H](C)CC)[C@@H](C)CC (H-WFIIWHWRKIPPK-NH2)", 7.5]
]}
